target: SXT-Exo (S066) (Vibrio cholerae, UniProt Q8KQV9); assay: quenched PicoGreen dsDNA exonuclease assay; type: biochemical
Sequence (Q8KQV9 1-338 limits assumed): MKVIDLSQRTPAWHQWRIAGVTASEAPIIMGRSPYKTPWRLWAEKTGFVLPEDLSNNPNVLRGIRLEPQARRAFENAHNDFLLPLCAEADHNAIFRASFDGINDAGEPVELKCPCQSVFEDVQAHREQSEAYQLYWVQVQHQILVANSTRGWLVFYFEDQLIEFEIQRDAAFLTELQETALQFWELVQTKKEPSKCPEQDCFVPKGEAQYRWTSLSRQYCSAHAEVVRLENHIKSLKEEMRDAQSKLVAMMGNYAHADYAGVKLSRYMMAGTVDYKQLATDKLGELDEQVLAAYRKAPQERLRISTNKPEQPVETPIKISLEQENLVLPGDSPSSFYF
pIC50: −log10 of the molar value. Counter-ions that a name gives are not always drawn.
MEASUREMENT LABEL: pIC50

Prompt: Returns the measured pIC50 for the input molecule. Input: O=S(=O)(O)O [potassium sulfate]
Response: ~1.46
